test system: HOP-62 NSCLC; assay: NCI tumour cell line growth inhibition, 48 h
test.readout: TGI (µM)
Number in µM, nothing else.

CCCCCCCCCCOC1C(C(O)CNCCCN(C)C)OC2OC3(CCCCC3)OC21 (centres undefined) = 4.04

Item: CCCCCCCCCc1c(Cl)nc(Cl)nc1Cl | TGI: 37.5

----------
system: ACHN renal; assay: NCI tumour cell line growth inhibition, 48 h
test.readout: TGI

Sample records with TGI:
O=C(c1ccccc1)c1c(C(F)(F)F)n([O-])c2ccc(F)cc2[n+]1=O = 2.34 µM
OCCN(CCO)CCn1cnc2c(NCc3ccccc3)ncnc21 = > 100 µM
NC(=Nc1ccc(S(=O)(=O)Nc2cnc3ccccc3n2)cc1)/N=C(/N)Nc1ccc(Br)cc1 = > 100 µM
O=C(O)CCn1cnc2c(=S)nc[nH]c21 = > 100 µM
O=C1c2ccccc2C(=O)c2c(Nc3ccc(CCO)cc3)ccc(O)c21 = 45.2 µM
CN(C)CCCNC(=O)c1c(-c2cccnc2)cnc2ccccc12 = > 100 µM

Entry CC12OC(CC(O)C1O)n1c3ccccc3c3c4c(c5c6ccccc6n2c5c31)C(=O)N(CCN1CCCC1)C4=O (stereo unspecified) under ACHN renal had TGI of 2.34 µM

Entry CCCCN(CCCC)CC(C(=O)Nc1ccccc1)/C(C)=N\NC(=O)c1ccncc1 (stereo unspecified) under ACHN renal had TGI of > 100 µM

Entry OC1c2c(ccc3c2CCC3)CC12Cc1ccccc1C2 (stereo unspecified) under ACHN renal had TGI of 32.7 µM

Entry Cc1cc(S(=O)(=O)Nc2n[nH]c(-c3ccc(Cl)cn3)n2)c(S)cc1Cl under ACHN renal had TGI of > 100 µM

Entry COc1ccc(/C=N/Nc2nc(-c3cc4oc(=O)n(C)c4cc3Cl)cs2)cc1OC under ACHN renal had TGI of 62.3 µM

Entry CCOC(=O)/C(=N/Nc1ccc(C)cc1)N1C(=S)C=C(C)NN(C)C1=S under ACHN renal had TGI of > 100 µM

Entry O=C(O)/C=C/C=C/c1ccc2c(c1)OCO2 under ACHN renal had TGI of > 100 µM

Entry Cc1ccc(S(=O)(=O)n2cc(/C=C/C#N)c(/C=C/C#N)c2)cc1 under ACHN renal had TGI of > 100 µM

----------
tested on: RPMI-8226 leukemia; assay: NCI tumour cell line growth inhibition, 48 h
test.readout: log10 TGI (log10 of the value in µM)
Response schema: value (number) is log10 of TGI in units of µM.

Sample records with log10 TGI:
COc1cc2c3c(n(CCCn4ccnc4)c(=O)c2cc1OC)-c1cc2c(cc1C3=O)OCO2 = -0.82
CC(C)=Cc1cc2c(cc1O)CCC1C2CC[C@@]2(C)C1CC[C@@H]2O (stereo not given in full) = 1.41
Cc1ccc(/C=C2\COc3ccc(O)c(O)c3C2=O)cc1 = -0.09
N#CC12CC3=C(N=C1NC1=C(CCc4ccccc41)C2)c1ccccc1CC3 (stereo not given) = 0.62

Entry CC(C)=CC1CC(=O)C1(C)Sc1ccccc1 (stereo not given) under RPMI-8226 leukemia had log10 TGI of 1.66

----------
tested on: HS 578T breast; assay: NCI tumour cell line growth inhibition, 48 h
test.readout: TGI

Sample records with TGI:
O=[N+]([O-])c1ccc(N/N=C2\C=CCCC2)c([N+](=O)[O-])c1 = > 100 µM
C=C(C)c1ccccc1 (tested in a mixture with another compound) = > 100 µM
CC(C)=Cc1cc2c(cc1O)CCC1C2CC[C@@]2(C)C1CC[C@@H]2O (stereo not given in full) = 65.6 µM
O=C(O)CN(CCN(CC(=O)O)CC(=O)O)CC(=O)O = > 100 µM
O=C(O)CCc1ccc(-c2ccccc2)[nH]1 = > 100 µM

Item: Cc1cccc2c1CC1(Cc3ccccc3C1=O)C2=O (stereo not given) | TGI: > 100 µM

Item: COc1cc(/C=C2\CCc3ccccc3C2=O)ccc1O | TGI: > 100 µM

Item: S=C(S)N1CCOCC1 | TGI: > 100 µM

----------
test system: CAKI-1 renal
Assign a class; possible classes are active, inactive

Example entries begin here.
O=C(c1ccccc1)c1c(C(F)(F)F)n([O-])c2ccc(F)cc2[n+]1=O = inactive
CCN(Cc1ccccc1F)c1ccc(CO)c(Cl)c1 = inactive
COC1C(O)CC(OC2CC(OC3CC(O[C@@H]4C(=O)c5c(cc6cc(OC7CC(OC8CC(O)C(O)C(C)O8)C(O)C(C)O7)c(C)c(O)c6c5O)CC4[C@H](OC)C(=O)C(C)=O)OC(C)C3O)OC(C)C2O)OC1C (some centres not stated) = active
CS(=O)(=O)c1ccc(Oc2cc(F)cc(C#N)c2)c2c1[C@H](O)[C@H](F)[C@H]2F = inactive
O=C1c2ccccc2C(=O)c2c(Nc3ccc(CCO)cc3)ccc(O)c21 = inactive
c1ccc(CSCCNCCN(CCNCCSCc2ccccc2)CCNCCSCc2ccccc2)cc1 = inactive

Next up:
Query: Called result for CCO.CCO.Oc1ccc(Nc2ncns2)cc1.Oc1ccc(Nc2ncns2)cc1.[Ti]
Response: inactive

----------
system: HOP-62 NSCLC
Assign a class; possible classes are t = active, f = inactive

COc1ccc([As]=[As]c2ccc(OC)c(NCS(=O)(=O)O)c2)cc1NCS(=O)(=O)O (configuration not stated) = f

Next up:
Query: Called result for COc1cc2c3c(n(CCCn4ccnc4)c(=O)c2cc1OC)-c1cc2c(cc1C3=O)OCO2
Response: t

----------
test system: BT-549 breast
Assign a class; possible classes are active, inactive

Example entries begin here.
CCOC(=O)c1ccc2c(c1)nc(-c1ccc(Cl)cc1)n2-c1cc(C(C)(C)C)[nH]n1 = inactive
COc1cc2cc(c1Cl)N(C)C(=O)C[C@H](OC(=O)[C@H](C)N(C)C(=O)CCS)C[C@]1(C)O[C@H]1[C@H](C)[C@@H]1C[C@@](O)(NC(=O)O1)[C@H](OC)/C=C/C=C(\C)C2 = active
CCN(CC)c1ccc(C2=NN(C(C)=O)C(c3cc(OC)c(OC)c(OC)c3)C2)cc1 (stereo not drawn) = inactive

Query: Called result for CS(=O)(=O)Nc1ccc(Nc2c3ccccc3nc3cc([N+](=O)[O-])ccc23)cc1
Response: inactive

Query: Called result for COC1C(O)CC(OC2CC(OC3CC(O[C@@H]4C(=O)c5c(cc6cc(OC7CC(OC8CC(O)C(O)C(C)O8)C(O)C(C)O7)c(C)c(O)c6c5O)CC4[C@H](OC)C(=O)C(C)=O)OC(C)C3O)OC(C)C2O)OC1C (stereo partly drawn)
Response: active

Query: Called result for COc1cc(C(=O)N2CCN(c3ccccn3)CC2)c(N)cc1OCc1ccccc1
Response: inactive

Query: Called result for CCCCCCCCCCCCCCCCSC(=NCC)NCC
Response: inactive

Query: Called result for Nc1ncc(-c2ccc3ncnc(N4CCc5ccc(Cl)cc54)c3c2)cn1
Response: inactive

----------
test system: NCI-H522 lung; test: NCI tumour cell line growth inhibition, 48 h
# TGI per entry
Number in µM, nothing else.

Sample records with TGI:
CN1CCC(SC2Cc3cc(Cl)ccc3Sc3ccccc32)CC1 (stereo not given) = 28.4
OCc1cn(Cc2ccc(Cl)cc2)c2ccccc12 = 14.8
CCC1(CC)C(=O)N(C(=O)c2ccc(C)cc2)N(C(=O)c2ccc(C)cc2)C1=O = 51.6

Item: O=C1c2ccccc2C(=O)c2c(Nc3ccc(CCO)cc3)ccc(O)c21 | TGI: 16.7

Item: O=c1cnnc2sc(=S)[nH]n12 | TGI: 27

Item: O=C(Nc1ccc(F)cc1)C(=O)C(C(=O)c1ccccc1F)C1OC(=O)c2ccccc21 (stereo not given) | TGI: 71.8

----------
# TGI per entry
system: COLO 205 colon; assay: NCI tumour cell line growth inhibition, 48 h

Sample records with TGI:
S=c1ncc2n[nH]nc2[nH]1 = > 100 µM
CCCCCCCCCCCCCCCCSC(=NCC)NCC = 3.47 µM
CC(C)=CC1CC(=O)C1(C)Sc1ccccc1 (stereo not given) = 65.1 µM
NC(=Nc1ccc(S(=O)(=O)Nc2cnc3ccccc3n2)cc1)/N=C(/N)Nc1ccc(Br)cc1 = > 100 µM
CCCCCCSC[C@H](OC(C)=O)[C@@H](OC(C)=O)[C@@H](OC(C)=O)[C@@H](COC(C)=O)OC(C)=O = > 100 µM
O=[N+]([O-])c1ccc(N/N=C2\C=CCCC2)c([N+](=O)[O-])c1 = > 100 µM

Item: COc1ccc(NC(=O)CC(=O)NN)cc1 | TGI: > 100 µM

----------
# TGI per entry
tested on: NCI-H226 lung; experiment: NCI tumour cell line growth inhibition, 48 h

COC(=O)C1CC(C(=O)OC)c2nc3cc([N+](=O)[O-])ccc3nc21 (stereo unspecified) = > 100 µM
O=C1c2ccccc2C(=O)c2c(Nc3ccc(CCO)cc3)ccc(O)c21 = 48.9 µM
CC1(c2ccccc2)N=C(C(N)=O)c2[nH]cnc2N1 (stereo unspecified) = > 100 µM
CN(C)C(=S)OC(Cn1cncn1)c1ccc(Cl)cc1Cl (stereo unspecified) = > 100 µM
CCN(Cc1ccccc1F)c1ccc(CO)c(Cl)c1 = 0.0511 µM

# next compound below
Item: COc1cc(-c2nc3nc(N4CCN(C)CC4)ccc3[nH]2)c(OC)c2[nH]c(CO)nc12 | TGI: > 100 µM
